Each recorded value in this set is attributed to the RNAGym collection of RNA variant scans (doi:10.7554/elife.90254).

Recorded self-cleavage values for a group of variants are listed next.
B1: LINE1-full (parent)
chain: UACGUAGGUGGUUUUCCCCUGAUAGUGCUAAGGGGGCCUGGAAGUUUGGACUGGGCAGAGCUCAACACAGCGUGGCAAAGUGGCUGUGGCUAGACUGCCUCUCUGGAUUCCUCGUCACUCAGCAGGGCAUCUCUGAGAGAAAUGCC

# Variants of: B1
# measurement_notes: self-cleavage, relative activity (ratio to wild type); higher = more cleavage; in vitro, sequencing; the parent is a self-cleaving ribozyme
Just the number, please, no unit after it.

# example entries with known answers
{"columns": ["mutation", "self-cleavage"],
 "data": [
  ["U15C U39C", 1.51],
  ["U73A U109C", 1.05]
]}

# self-cleavage lookup, item U9C C90U 0.09
